# System: 596521-263-R-J1-PDC complex spheroid growth
# testName: Anticancer human tumor 596521-263-R-J1-PDC patient-derived soft tissue sarcoma cell line growth inhibition [Asc]
# experimentalConditions: curve of first compound; second compound 1 µM
quantityMeasured: pIC50
Answers are plain numbers, as −log10 of the molar value.

Parameter requested: pIC50. Apply to each item below.
1. CCN1C(C(=O)NC23CCC(C(=O)O)(CC2)CC3)C(c2cccc(Cl)c2F)C2(C(=O)Nc3cc(Cl)ccc32)C12CCCCC2 (stereo unspecified) + Cc1c(S(C)(=O)=O)c(-c2cc(F)cc(N3CCN(c4ccc(NS(=O)(=O)c5ccc(NC(CCN6CCC(C(=O)OCCCP(=O)(O)O)CC6)CSc6ccccc6)c(S(=O)(=O)C(F)(F)F)c5)cc4)CC3)c2)c(-c2ccc(Cl)cc2)n1C(C)C
2. NC(=O)C(=Cn1cnc(-c2cc(C(F)(F)F)cc(C(F)(F)F)c2)n1)c1cncnc1 + Cc1c(S(C)(=O)=O)c(-c2cc(F)cc(N3CCN(c4ccc(NS(=O)(=O)c5ccc(NC(CCN6CCC(C(=O)OCCCP(=O)(O)O)CC6)CSc6ccccc6)c(S(=O)(=O)C(F)(F)F)c5)cc4)CC3)c2)c(-c2ccc(Cl)cc2)n1C(C)C
3. COc1c(OCCCN2CCOCC2)ccc2c3n(c(=NC(=O)c4cnc(N)nc4)nc12)CCN3 + Cc1c(S(C)(=O)=O)c(-c2cc(F)cc(N3CCN(c4ccc(NS(=O)(=O)c5ccc(NC(CCN6CCC(C(=O)OCCCP(=O)(O)O)CC6)CSc6ccccc6)c(S(=O)(=O)C(F)(F)F)c5)cc4)CC3)c2)c(-c2ccc(Cl)cc2)n1C(C)C
4. Cc1nc(N2CCC3(CC2)COC(C)C3N)c(CO)nc1Sc1ccnc(N)c1Cl (stereo unspecified) + CNC(C)C(=O)NC1CN(S(=O)(=O)c2cccc(S(=O)(=O)N3CCC4CCC(C(=O)NC(c5ccccc5)c5ccccc5)N4C(=O)C(NC(=O)C(C)NC)C3)c2)CCC2CCC(C(=O)NC(c3ccccc3)c3ccccc3)N2C1=O

Solution:
1: 5.62; 2: 7.81; 3: 7.13; 4: 5.79

###

# System: 596521-263-R-J1-PDC complex spheroid growth
# testName: Anticancer human tumor 596521-263-R-J1-PDC cell line growth inhibition [Asc];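 also: spheroids exposed to compounds for 7 days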
# experimentalConditions: second compound 1 µM; first compound 1 µM; stronger effect = lower value
quantityMeasured: viability, T/C (%)
One number for each entry, in %.

Parameter requested: viability, T/C. Apply to each item below.
1. O=C(c1cc(Cc2n[nH]c(=O)c3ccccc23)ccc1F)N1CCN(C(=O)C2CC2)CC1 + Cc1c(S(C)(=O)=O)c(-c2cc(F)cc(N3CCN(c4ccc(NS(=O)(=O)c5ccc(NC(CCN6CCC(C(=O)OCCCP(=O)(O)O)CC6)CSc6ccccc6)c(S(=O)(=O)C(F)(F)F)c5)cc4)CC3)c2)c(-c2ccc(Cl)cc2)n1C(C)C
2. O=C(c1cc(Cc2n[nH]c(=O)c3ccccc23)ccc1F)N1CCN(C(=O)C2CC2)CC1 + CNC(C)C(=O)NC1CN(S(=O)(=O)c2cccc(S(=O)(=O)N3CCC4CCC(C(=O)NC(c5ccccc5)c5ccccc5)N4C(=O)C(NC(=O)C(C)NC)C3)c2)CCC2CCC(C(=O)NC(c3ccccc3)c3ccccc3)N2C1=O
3. CCN1CCN(Cc2ccc(Nc3ncc(F)c(-c4cc(F)c5nc(C)n(C(C)C)c5c4)n3)nc2)CC1 + CNC(C)C(=O)NC1CN(S(=O)(=O)c2cccc(S(=O)(=O)N3CCC4CCC(C(=O)NC(c5ccccc5)c5ccccc5)N4C(=O)C(NC(=O)C(C)NC)C3)c2)CCC2CCC(C(=O)NC(c3ccccc3)c3ccccc3)N2C1=O

Solution:
71.2
69.1
69.4

###

Answer each item with its documented viability, T/C.
# System: 596521-263-R-J1-PDC complex spheroid growth
# testName: Anticancer human tumor 596521-263-R-J1-PDC cell line growth inhibition [Asc];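 also: spheroids exposed to compounds for 7 days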
# experimentalConditions: second compound 0.316 µM; first compound 0.316 µM; stronger effect = lower value
Answers are plain numbers, in %.

Use these answered entries as a reference point.
# compound, quantityMeasured, units, readoutNumber
measured = [
    ("C=C(F)C(=O)N1CCN(c2nc(OCC3CCCN3C)nc3c2CCN(c2cccc4cccc(Cl)c24)C3)CC1CC#N (stereo not given) + Cc1c(S(C)(=O)=O)c(-c2cc(F)cc(N3CCN(c4ccc(NS(=O)(=O)c5ccc(NC(CCN6CCC(C(=O)OCCCP(=O)(O)O)CC6)CSc6ccccc6)c(S(=O)(=O)C(F)(F)F)c5)cc4)CC3)c2)c(-c2ccc(Cl)cc2)n1C(C)C", "viability, T/C", "%", 92.4),
    ("COc1c(OCCCN2CCOCC2)ccc2c3n(c(=NC(=O)c4cnc(N)nc4)nc12)CCN3 + Cc1c(S(C)(=O)=O)c(-c2cc(F)cc(N3CCN(c4ccc(NS(=O)(=O)c5ccc(NC(CCN6CCC(C(=O)OCCCP(=O)(O)O)CC6)CSc6ccccc6)c(S(=O)(=O)C(F)(F)F)c5)cc4)CC3)c2)c(-c2ccc(Cl)cc2)n1C(C)C", "viability, T/C", "%", 36.1),
    ("C#Cc1c(F)ccc2cc(O)cc(-c3ncc4c(N5CC6CCC(C5)N6)nc(OCC56CCCN5CC(F)C6)nc4c3F)c12 (stereo not given) + CNC(C)C(=O)NC1CN(S(=O)(=O)c2cccc(S(=O)(=O)N3CCC4CCC(C(=O)NC(c5ccccc5)c5ccccc5)N4C(=O)C(NC(=O)C(C)NC)C3)c2)CCC2CCC(C(=O)NC(c3ccccc3)c3ccccc3)N2C1=O", "viability, T/C", "%", 91.2),
]

Parameter requested: viability, T/C. Apply to each item below.
1. C=CC(=O)N1CCN(c2nc(=O)n(-c3c(C)ccnc3C(C)C)c3nc(-c4c(O)cccc4F)c(F)cc23)C(C)C1 (stereo not given) + Cc1c(S(C)(=O)=O)c(-c2cc(F)cc(N3CCN(c4ccc(NS(=O)(=O)c5ccc(NC(CCN6CCC(C(=O)OCCCP(=O)(O)O)CC6)CSc6ccccc6)c(S(=O)(=O)C(F)(F)F)c5)cc4)CC3)c2)c(-c2ccc(Cl)cc2)n1C(C)C
2. C#Cc1c(F)ccc2cc(O)cc(-c3ncc4c(N5CC6CCC(C5)N6)nc(OCC56CCCN5CC(F)C6)nc4c3F)c12 (stereo not given) + Cc1c(S(C)(=O)=O)c(-c2cc(F)cc(N3CCN(c4ccc(NS(=O)(=O)c5ccc(NC(CCN6CCC(C(=O)OCCCP(=O)(O)O)CC6)CSc6ccccc6)c(S(=O)(=O)C(F)(F)F)c5)cc4)CC3)c2)c(-c2ccc(Cl)cc2)n1C(C)C

Solution:
80.1
76.9
